Field: inhibition. Provide a value for each of the molecules that follow.
target: Cathepsin G (Homo sapiens) (UniProt P08311); test: human cathepsin G inhibitors, primary screen, biochemical, pooled compound mixtures, AMC fluorescence (AID 581); details: purified enzyme, AMC-tetrapeptide fluorescence, hits give high values, screened at 5 µM (by protocol);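 further: 0% = enzyme control without mixture and 100% = blank lacking enzyme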
Sequence (P08311 21-244 limits assumed): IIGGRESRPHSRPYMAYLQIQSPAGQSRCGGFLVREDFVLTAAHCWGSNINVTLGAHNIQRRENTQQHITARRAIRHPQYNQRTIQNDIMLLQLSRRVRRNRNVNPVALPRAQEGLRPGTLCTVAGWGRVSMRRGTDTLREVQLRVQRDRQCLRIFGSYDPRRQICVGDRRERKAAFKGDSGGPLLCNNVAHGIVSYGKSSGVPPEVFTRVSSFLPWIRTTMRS
Among all 62,000 compounds or so, about 95 (0.2%) were called active. Many of the other results were omitted from the sample, so actives are more common in it than they were.
Give bare numbers, in %.

// known answers, use as guide
INSERT INTO results (molecule, tested_on, reported_endpoint, obs_value) VALUES
  ('CCN(CC(=O)Nc1ccc2c(c1)OCCO2)Cc1cc(=O)oc2cc(C)c(C)cc12', 'Cathepsin G (Homo sapiens) (UniProt P08311)', 'inhibition', 1.52),
  ('Cn1c(CC(=O)Nc2ccccc2)nnc1SCC(=O)c1ccccc1', 'Cathepsin G (Homo sapiens) (UniProt P08311)', 'inhibition', -0.18),
  ('CC1(N2CCOCC2)CC2(O)C(=[N+]1[O-])CCc1nonc12 (stereo unspecified)', 'Cathepsin G (Homo sapiens) (UniProt P08311)', 'inhibition', 11.9),
  ('Cn1c(-c2ccc(C(=O)c3ccccc3)s2)nc2ccccc21', 'Cathepsin G (Homo sapiens) (UniProt P08311)', 'inhibition', 2.31),
  ('Cc1cccc(NC(=O)CSc2nnc(CCCCCNC(=O)OC(C)(C)C)o2)c1C', 'Cathepsin G (Homo sapiens) (UniProt P08311)', 'inhibition', 6.06),
  ('COc1ccccc1N1CCN(CCCCOc2ccc(F)cc2)CC1', 'Cathepsin G (Homo sapiens) (UniProt P08311)', 'inhibition', 13.1),
  ('CC(=O)c1c(C)n(-c2ccc(N(C)C)cc2)c2ccc(OCC(N)=O)cc12', 'Cathepsin G (Homo sapiens) (UniProt P08311)', 'inhibition', 8.67),
  ('NC(=O)CCCC1=NS(=O)(=O)c2ccccc2N1', 'Cathepsin G (Homo sapiens) (UniProt P08311)', 'inhibition', 4.5),
  ('COc1ccc2nc(N3CCCC(O)C3)c(C#N)cc2c1 (stereo unspecified)', 'Cathepsin G (Homo sapiens) (UniProt P08311)', 'inhibition', 7.5),
  ('CC1(C)CC(=O)C=C(NC2CC(C)(C)NC(C)(C)C2)C1', 'Cathepsin G (Homo sapiens) (UniProt P08311)', 'inhibition', 6.34);

Here is another molecule to look at.
Returns the measured inhibition for the input molecule. Input: Cc1nn(Cc2ccc(Cl)c(Cl)c2)c(C)c1NC(=O)c1cc(C2CC2)on1
-8.5

---

molecular target: Cathepsin G (Homo sapiens) (UniProt P08311); assay: human cathepsin G inhibitors, primary screen, biochemical, pooled compound mixtures, AMC fluorescence (AID 581); details: purified enzyme, AMC-tetrapeptide fluorescence, hits give high values, screened at 5 µM (by protocol);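 further: 0% = enzyme control without mixture and 100% = blank lacking enzyme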
Hit rate of the full screen: of about 62,000 compounds, about 95 (0.2%) were called active. The sample holds actives, similar compounds and a random draw of the others, so the mix is not that of the screen.
reported endpoint: inhibition (%)
One number for each entry, in %.

INSERT INTO results (molecule, result_units, obs_value) VALUES
  ('Cc1cccc(NC(=O)COc2ccc(Br)cc2C)n1', '%', 2.75),
  ('O=C(COc1ccccc1Cl)Nn1cnnc1', '%', 3.79),
  ('O=C(CSc1nnc(-c2ccco2)n1CC1CCCO1)c1ccccc1 (centres undefined)', '%', 10.9),
  ('CC(C)C(=O)Nc1cccc(C(=O)Nc2ccc3c(c2)OCO3)c1', '%', 10.1),
  ('CCOC(=O)c1csc(NC(=O)c2ccc(S(=O)(=O)N3CCCC3)cc2)n1', '%', -0.28),
  ('CC1CCCC(C)N1C(=O)CN1CCN(c2nc(-c3ccc(F)cc3)cs2)CC1 (centres undefined)', '%', -39.9),
  ('CN(Cc1ccccc1)C(=O)CCNC(=O)Cn1cnc2ccccc2c1=O', '%', -3.7),
  ('Cc1cc(N=CC2=C(O)CCCC2=O)no1', '%', 14.9),
  ('C1=C(N2CCOCC2)/C(=C/c2nc3ccccc3[nH]2)CC1', '%', 12.8),
  ('COc1ccccc1C(=O)n1nc(-c2ccccc2)nc1N', '%', 7.93);

Hey, quick one: what's inhibition for each of these?
1. CN(C)/C=C1/Nc2ccccc2C1=O
2. COc1ccc(-c2nc(CS(=O)CC(=O)N3CCc4ccccc4C3)c(C)o2)cc1 (centres undefined)
3. CN(C)c1ccnc2sc3c(=O)n(Cc4ccccc4)cnc3c12
4. Cc1ccccc1CSc1nnc(-c2cccnc2)n1N
5. O=C(Cn1c(=O)sc2ccccc21)Nc1ccc2c(c1)OCCO2

-0.82
2.91
-4.39
14.2
1.24

Hey, quick one: what's inhibition for each of these?
1. Cn1c(SCc2c(F)cccc2Cl)nnc1-c1cnccn1
2. COc1ccc(C(=O)n2nc(-c3ccc(C)cc3)nc2N)cc1OC
3. COc1ccc(C(=O)n2nc(-c3ccc(Cl)cc3)nc2N)cc1OC

[3.17, 44, 37.8]

Hey, quick one: what's inhibition for each of these?
1. O=C1N=C(N2CCOCC2)CS1
2. COc1ccc2c(c1)CCc1c(C(=O)N3CCCC3)noc1-2
3. COc1ccc(S(=O)(=O)NC2(C(F)(F)F)N=C3SCCN3C2=O)cc1 (centres undefined)
4. COc1ccc2c(c1)CCc1c(C(=O)Nc3c(C)n(C)n(-c4ccccc4)c3=O)noc1-2
5. COc1ccc2c(c1)CCc1c(C(=O)N3CCc4ccccc4C3)noc1-2
6. COC(=O)c1ccc(OC(=O)c2nn(C)cc2Cl)c(OC)c1

1: -2.67; 2: 18.8; 3: 11.4; 4: 34.3; 5: 35; 6: 1.08
